Origin of the recorded values: patent US11286268B1

molecular target: recombinant eIF4E (Homo sapiens (Human)); experiment: Fluorescence polarization competition assay for eIF4E binding potency; details: fluorescence polarization competition, 75 nM recombinant eIF4E, 20 nM EDA-m7GDP-ATTO-550; IC50 class; read-out: elF4E FP
Sequence (P06730 whole entry): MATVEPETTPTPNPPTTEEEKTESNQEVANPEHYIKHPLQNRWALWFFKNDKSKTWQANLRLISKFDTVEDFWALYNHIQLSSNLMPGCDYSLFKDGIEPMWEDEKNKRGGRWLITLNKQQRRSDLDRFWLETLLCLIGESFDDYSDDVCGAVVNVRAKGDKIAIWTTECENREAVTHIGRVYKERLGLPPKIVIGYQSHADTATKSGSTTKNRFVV
pIC50: −log10 of the molar value.
Measured Parameter: pIC50

• Cc1nc2cc(C(F)(F)c3ccncc3)cc(C#N)c2c(=O)n1CCOc1ccc(Cl)cc1-c1ccnc2c(C(=O)O)csc12 [compound 216] = 6.00 to 7.30
• Cc1cc(-c2cc(Cl)ccc2OCCn2c(C)nc3c(C)nc(-c4cc(F)ccc4Cl)c(C#N)c3c2=O)c2scc(C(=O)O)c2n1 [compound 999] = > 7.30
• Cc1cc(-c2cc(Cl)ccc2OCCn2c(C)nc3cc(CN(C)C)c(C(F)(F)F)c(C#N)c3c2=O)c2scc(C(=O)O)c2n1 [compound 635] = > 7.30
• Cc1cc(-c2cc(Cl)ccc2OCCn2c(C)nc3cn(C)c(=O)c(C#N)c3c2=O)c2scc(C(=O)O)c2n1 [compound 1005] = > 7.30

Provide each entry's pIC50 from the list below.
1. Cc1cc(-c2cc(Cl)ccc2OCCn2c(C)cc3cnc(-c4cc(F)cnc4C)c(C#N)c3c2=O)c2scc(C(=O)O)c2n1 [compound 1001]
2. CC(=O)N1CCN(c2c(C(F)(F)F)cc3nc(C)n(CCOc4ccc(Cl)cc4-c4cccc(C(=O)O)c4)c(=O)c3c2C#N)CC1 [compound 378]
3. Cc1cc(-c2cc(Cl)ccc2OCCn2c(C)nc3cc(C(F)(F)F)c(N4CCN(C)CC4)c(C#N)c3c2=O)c2scc(C(=O)OC(C)OC(=O)OC3CCCCC3)c2n1 (centres unmarked) [compound 1082]
4. COc1c(Cl)cc(-c2cc(Cl)ccc2OCCn2cnc3cnc(C#N)cc3c2=O)cc1C(=O)O [compound 108]
5. Cc1nc2cnc(N(C)C3CCN(CC(F)(F)C4CC4)CC3)c(C#N)c2c(=O)n1CC#Cc1ccc(Cl)cc1-c1ccnc2c(C(=O)O)csc12 [compound 1125]

# output
["> 7.30", "> 7.30", "6.00 to 7.30", "< 6.00", "> 7.30"]

Provide pIC50 values for the following items, in order.
1. Cc1nc2cnc(N(C)C3CCN([C@H]4C[C@@H](OC(F)F)C4)CC3)c(C#N)c2c(=O)n1CC#Cc1ccc(Cl)cc1-c1ccnc2c(C(=O)O)csc12 [compound 1172]
2. C#Cc1c(-c2cc(Cl)ccc2OCCn2c(C(F)F)nc3cccc(C#N)c3c2=O)ccnc1C(=O)O [compound 163]
3. COC1CN(c2c(C(F)(F)F)cc3nc(C)n(CCOc4ccc(Cl)cc4-c4cc(C)nc5c(C(=O)O)csc45)c(=O)c3c2C#N)C1 [compound 1009]
4. Cc1cc(-c2cc(Cl)ccc2OCCn2c(C)nc3c(C)nc(N4CCC(O)C4)c(C#N)c3c2=O)c2scc(C(=O)O)c2n1 (centres unmarked) [compound 1149]

# output
["> 7.30", "6.00 to 7.30", "> 7.30", "> 7.30"]

Okay, here is my list. What is pIC50 for each of these?
1. N#Cc1cc2c(=O)n(CCCc3ccc(Cl)cc3-c3cccc(C(=O)O)c3)cnc2cn1 [compound 42]
2. Cc1cc(-c2cc(Cl)ccc2OCCn2c(C)nc3cc(C(F)F)c(-c4cccnc4C)c(C#N)c3c2=O)c2scc(C(=O)O)c2n1 [compound 440]
3. Cc1cc(-c2cc(Cl)ccc2OCCn2c(C)nc3c(C)nc(-c4ccc(F)cc4)c(C#N)c3c2=O)c2scc(C(=O)O)c2n1 [compound 474]
4. C#Cc1c(-c2cc(Cl)ccc2OCCn2c(C)nc3cc(C(F)(F)F)cc(C#N)c3c2=O)ccnc1C(=O)O [compound 58]

# output
< 6.00
> 7.30
> 7.30
6.00 to 7.30

Batch request: pIC50 for each of the following compounds.
1. Cc1cc(-c2cc(Cl)ccc2OCCn2c(C)nc3c(C(F)(F)F)cc(N4CCN(C)CC4)nc3c2=O)c2scc(C(=O)O)c2n1 [compound 677]
2. Cc1cc(-c2cc(Cl)ccc2OCCn2c(C)nc3cc(C(F)(F)F)c(-c4nc(C)ncc4F)c(C#N)c3c2=O)c2scc(C(=O)O)c2n1 [compound 964]

# output
1: > 7.30; 2: > 7.30

Hey, quick one: what's pIC50 for each of these?
1. Cc1cc(-c2cc(Cl)ccc2OCCn2c(C)nc3cc(C(F)(F)F)c(-c4nccnc4C(F)(F)F)nc3c2=O)c2scc(C(=O)O)c2n1 [compound 990]
2. CNS(=O)(=O)c1ccc(C#N)c2c(=O)n(CCOc3ccc(Cl)cc3-c3ccnc4c(C(=O)O)csc34)c(C)nc12 [compound 238]
3. Cc1cc(-c2cc(Cl)ccc2OCCn2c(C)nc3cnc(C4CC4)c(C#N)c3c2=O)c2scc(C(=O)O)c2c1C [compound 771]
4. Cn1nc(C(=O)O)cc1-c1cc(Cl)ccc1OCCn1cnc2cnc(C#N)cc2c1=O [compound 84]
5. Cc1cc(-c2cc(Cl)ccc2OCCn2c(C)nc3cc(C(F)(F)F)c(-c4ccccc4)nc3c2=O)c2scc(C(=O)O)c2n1 [compound 467]

# output
1: > 7.30; 2: > 7.30; 3: > 7.30; 4: < 6.00; 5: > 7.30

Hey, can you go through the list below and give me pIC50 for every item?
1. O=C(O)c1cccc(-c2cc(Cl)ccc2OCCn2cnc3ccncc3c2=O)c1 [compound 12]
2. Cc1nc2cccc(C#N)c2c(=O)n1CCOc1ccc(Cl)cc1-c1ccnc2c(C(=O)O)csc12 [compound 254]

# output
< 6.00
> 7.30
